Where do these numbers come from? They come from patent US12378235B2.

Target desc: HCK (Homo sapiens, UniProt P08631)
Construct: purchased Reaction Biology Corp
Sequence (P08631 whole entry): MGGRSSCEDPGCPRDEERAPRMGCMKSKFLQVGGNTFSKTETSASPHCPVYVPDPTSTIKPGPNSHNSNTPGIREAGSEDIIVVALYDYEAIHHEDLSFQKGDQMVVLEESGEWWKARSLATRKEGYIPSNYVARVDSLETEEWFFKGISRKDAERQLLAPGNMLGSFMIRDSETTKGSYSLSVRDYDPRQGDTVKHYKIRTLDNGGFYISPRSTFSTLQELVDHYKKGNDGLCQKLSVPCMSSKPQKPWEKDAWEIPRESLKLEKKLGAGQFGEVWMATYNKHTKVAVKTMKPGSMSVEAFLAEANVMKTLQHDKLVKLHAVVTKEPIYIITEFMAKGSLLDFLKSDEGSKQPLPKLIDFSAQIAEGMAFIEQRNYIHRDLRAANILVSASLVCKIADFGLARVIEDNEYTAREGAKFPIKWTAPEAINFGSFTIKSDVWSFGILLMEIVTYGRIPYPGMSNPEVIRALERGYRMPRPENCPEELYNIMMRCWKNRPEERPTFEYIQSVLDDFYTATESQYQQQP
Assay method text: P32 radioactive kinase assay (Reaction Biology Corp), HCK activity inhibition
Type: biochemical
Experimental setup: 1 μM compound; first of two replicate columns; remaining activity; read-out: % Enzyme Activity (relative to DMSO controls) HCK (1 μM)
Recorded metric: remaining activity at 1 µM (%)

{"Compound": "O=C(Nc1ncc(C(=O)O)s1)c1cc(Cl)cc(Cl)c1 [Example 21]", "Target desc": "HCK (Homo sapiens, UniProt P08631)", "Unit tag": "%", "remaining activity at 1 µM": 96.2}
{"Compound": "CCOC(=O)c1cnc(NC(=O)c2ccc(B3OC(C)(C)C(C)(C)O3)cc2)s1 [Example 9]", "Target desc": "HCK (Homo sapiens, UniProt P08631)", "Unit tag": "%", "remaining activity at 1 µM": 110}
{"Compound": "CCOC(=O)c1cnc(NC(=O)C2=Cc3cc(Cl)cc(Cl)c3OC2c2ccccc2)s1 (stereo not drawn) [Example 15]", "Target desc": "HCK (Homo sapiens, UniProt P08631)", "Unit tag": "%", "remaining activity at 1 µM": 86.6}
{"Compound": "CCOC(=O)c1cnc(NC(C#N)c2cc(-c3ccccc3)on2)s1 (stereo not drawn) [Example 13]", "Target desc": "HCK (Homo sapiens, UniProt P08631)", "Unit tag": "%", "remaining activity at 1 µM": 109}
{"Compound": "CCOC(=O)c1cnc(NC(=O)/C=C/c2ccccc2)s1 [Example 14]", "Target desc": "HCK (Homo sapiens, UniProt P08631)", "Unit tag": "%", "remaining activity at 1 µM": 112}
{"Compound": "CCOC(=O)c1cnc(NC(=O)c2cc(-c3ccccc3)on2)s1 [Example 17]", "Target desc": "HCK (Homo sapiens, UniProt P08631)", "Unit tag": "%", "remaining activity at 1 µM": 114}

###

Target desc: HCK (Homo sapiens, UniProt P08631)
Construct: purchased Reaction Biology Corp
Assay method text: P32 radioactive kinase assay (Reaction Biology Corp), HCK activity inhibition
Assay type: biochemical
Experimental setup: 1 μM compound; first of two replicate columns; remaining activity; read-out: % Enzyme Activity (relative to DMSO controls) HCK (1 μM)
Recorded metric: remaining activity at 1 µM (%)

{"Compound": "CCOC(=O)c1cnc(NC(=O)c2cc(OC)c(OC)c(OC)c2)s1", "Target desc": "HCK (Homo sapiens, UniProt P08631)", "Recorded metric": "remaining activity at 1 µM", "Test value": 97.5}
{"Compound": "CCOC(=O)c1cnc(NC(=O)c2cc3cc(Cl)ccc3[nH]c2=O)s1", "Target desc": "HCK (Homo sapiens, UniProt P08631)", "Recorded metric": "remaining activity at 1 µM", "Test value": 108}
{"Compound": "CCOC(=O)c1cnc(NC(C#N)C2=Cc3cc(Cl)cc(Cl)c3OC2c2ccccc2)s1 (stereo not drawn)", "Target desc": "HCK (Homo sapiens, UniProt P08631)", "Recorded metric": "remaining activity at 1 µM", "Test value": 108}
{"Compound": "O=C(Nc1ncc(C(=O)O)s1)c1cc(-c2ccccc2)on1", "Target desc": "HCK (Homo sapiens, UniProt P08631)", "Recorded metric": "remaining activity at 1 µM", "Test value": 107}
{"Compound": "CCOC(=O)c1cnc(NC(=O)c2cc(Cl)cc(Cl)c2)s1", "Target desc": "HCK (Homo sapiens, UniProt P08631)", "Recorded metric": "remaining activity at 1 µM", "Test value": 102}
{"Compound": "CCOC(=O)c1cnc(NC(=O)c2cc3cc(Cl)ccc3oc2=O)s1", "Target desc": "HCK (Homo sapiens, UniProt P08631)", "Recorded metric": "remaining activity at 1 µM", "Test value": 104}
{"Compound": "CCOC(=O)c1cnc(NC(C#N)c2ccc(B3OC(C)(C)C(C)(C)O3)cc2)s1 (stereo not drawn)", "Target desc": "HCK (Homo sapiens, UniProt P08631)", "Recorded metric": "remaining activity at 1 µM", "Test value": 104}
{"Compound": "CCOC(=O)c1cnc(NC(C#N)c2ccc(B(O)O)cc2)s1 (stereo not drawn)", "Target desc": "HCK (Homo sapiens, UniProt P08631)", "Recorded metric": "remaining activity at 1 µM", "Test value": 93.5}
{"Compound": "COc1cc(C(=O)Nc2ncc(C(=O)O)s2)cc(OC)c1OC", "Target desc": "HCK (Homo sapiens, UniProt P08631)", "Recorded metric": "remaining activity at 1 µM", "Test value": 99.2}
